System: woolly cupgrass (Eriochloa villosa)
method notes: Test B pre-/postemergence plant response
Assay type: in vivo
condition description: Preemergence, 31 g ai/ha; 0 to 100 scale, 0 no effect, 100 complete control
measurement kind: Plant response rating, Cupgrass, Woolly
Give the value as a plain number.

input: Give woolly cupgrass (Eriochloa villosa) Plant response rating, Cupgrass, Woolly for `Cn1ncc(O)c(-c2nn(-c3ccc(Cl)cc3)cc2Cl)c1=O`
output: 98

input: Kindly state the measured Plant response rating, Cupgrass, Woolly obtained for `CCc1cc(-c2ccc(Cl)c(Cl)c2)nn1-c1c(O)cnn(C)c1=O` with woolly cupgrass (Eriochloa villosa).
output: 50

Further cases:
input: Query Plant response rating, Cupgrass, Woolly on woolly cupgrass (Eriochloa villosa) for `Cc1cc(-c2ccc(Cl)cc2)nn1-c1c(OS(C)(=O)=O)cnn(C)c1=O`
output: 98

input: # value lookup — system woolly cupgrass (Eriochloa villosa), readout Plant response rating, Cupgrass, Woolly, item `Cc1cc(-c2ccc(Cl)cc2)nn1-c1c(OC(=O)C(C)C)cnn(C)c1=O`
output: 95

====

System: green foxtail (Setaria viridis)
method notes: Test C pre-/postemergence plant response
Type: in vivo
condition description: Preemergence, 31 g ai/ha; scale 0 to 100 (0 no effect, 100 complete control)
The entries below come with measured Plant response rating, Foxtail, Green values attached.
No unit in the answer, only the number.

input: Name the recorded Plant response rating, Foxtail, Green for `Cc1cn(-c2ccc(Cl)cc2)nc1-c1c(O)cnn(C)c1=O` .
output: 80

input: Return reported Plant response rating, Foxtail, Green; argument: `Cc1cc(-c2ccc(Cl)cc2)nn1-c1c(OS(=O)(=O)c2ccccc2[N+](=O)[O-])cnn(C)c1=O`
output: 100

input: # input molecule: `CCc1cc(-c2ccc(Cl)cc2)nn1-c1c(OC(=O)OC(C)C)cnn(C)c1=O` ; wanted: its Plant response rating, Foxtail, Green
output: 100

input: Any idea what its Plant response rating, Foxtail, Green is? The molecule is `Cc1cc(-c2ccc(Cl)cc2)nn1-c1c(OC(=O)C(C)C)cnn(C)c1=O`
output: 100

input: Give its Plant response rating, Foxtail, Green value. Item: `Cn1ncc(O)c(-c2nn(-c3ccc(Cl)cc3)cc2Cl)c1=O`
output: 100

Kindly consider the entry below.
input: What Plant response rating, Foxtail, Green value was documented for this molecule, `CCc1cc(-c2ccc(C(F)(F)F)cc2)nn1-c1c(O)cnn(C)c1=O` ?
output: 100

====

Tested on: canarygrass (Phalaris minor)
method notes: Test C pre-/postemergence plant response
Format: in vivo
condition description: Preemergence, 16 g ai/ha; scale 0 to 100 (0 no effect, 100 complete control)
measurement kind: Plant response rating, Canarygrass
// no unit string in output, number only

input: Would you mind telling me what Plant response rating, Canarygrass value was observed for `CCc1cc(-c2ccc(F)cc2)nn1-c1c(O)cnn(C)c1=O` ?
output: 0

input: Requested field: Plant response rating, Canarygrass. Item: `C#CCOC(=O)Oc1cnn(C)c(=O)c1-n1nc(-c2ccc(Cl)cc2)cc1C`
output: 60

input: Using the record for `Cc1cc(-c2ccc(Cl)cc2)nn1-c1c(OC(=O)OCC(C)C)cnn(C)c1=O` , report its Plant response rating, Canarygrass.
output: 75

input: For the compound `CCc1cc(-c2ccc(C(F)(F)F)cc2)nn1-c1c(O)cnn(C)c1=O` , what Plant response rating, Canarygrass is on record?
output: 75

input: Give its Plant response rating, Canarygrass value. Item: `COC(=O)Oc1cnn(C)c(=O)c1-n1nc(-c2ccc(Cl)cc2)cc1C`
output: 10

input: Please look up its Plant response rating, Canarygrass: `CCc1cc(-c2ccc(Cl)cc2)nn1-c1c(OC(=O)OC(C)C)cnn(C)c1=O`
output: 80

input: Quick check: Plant response rating, Canarygrass of `Cc1cn(-c2ccc(Cl)cc2)nc1-c1c(O)cnn(C)c1=O` ?
output: 0

input: Suppose we examine the compound `Cn1ncc(O)c(-c2nn(-c3ccc(Cl)cc3)cc2Cl)c1=O` ; what Plant response rating, Canarygrass value has been reported?
output: 0

====

Listing of entries alongside the reported Plant response rating, Windgrass.
Tested on: windgrass (Apera spica-venti)
method notes: Test C pre-/postemergence plant response
Type: in vivo
condition description: Preemergence, 16 g ai/ha; scale 0 to 100 (0 no effect, 100 complete control)
Respond numerically, and do not add a unit to the figure.

Record excerpt, results attached:
input: Request the reported Plant response rating, Windgrass associated with Cc1cc(-c2ccc(Cl)cc2)nn1-c1c(OC(=O)OCC(C)C)cnn(C)c1=O [Compound 57]
output: 0

input: Reported Plant response rating, Windgrass for CCc1cc(-c2ccc(F)cc2)nn1-c1c(O)cnn(C)c1=O [Compound 25] : what is it?
output: 75

input: Give its Plant response rating, Windgrass value. Item: C#CCOC(=O)Oc1cnn(C)c(=O)c1-n1nc(-c2ccc(Cl)cc2)cc1C [Compound 58]
output: 20

input: Look up Plant response rating, Windgrass for this compound: Cc1cc(-c2ccc(Cl)cc2)nn1-c1c(OC(=O)c2ccccc2)cnn(C)c1=O [Compound 48]
output: 0

---
input: Requested field: Plant response rating, Windgrass. Item: COC(=O)Oc1cnn(C)c(=O)c1-n1nc(-c2ccc(Cl)cc2)cc1C [Compound 33]
output: 0

====

System: naked crabgrass (Digitaria nuda)
method notes: Test E pre-/postemergence plant response
Type: in vivo
condition description: Postemergence, 16 g ai/ha; scale 0 to 100
Threshold check on Plant response rating, Crabgrass, Naked: at or above 80 gives fulfilled, strictly below gives not fulfilled.

input: Entry Cc1cc(-c2ccc(Cl)cc2)nn1-c1c(OS(C)(=O)=O)cnn(C)c1=O [Compound 36] : is its Plant response rating, Crabgrass, Naked no less than 80?
output: not fulfilled

Next:
input: // inclusive: Plant response rating, Crabgrass, Naked at least 80? input: CCc1cc(-c2ccc(C(F)(F)F)cc2)nn1-c1c(O)cnn(C)c1=O [Compound 11]
output: fulfilled

input: Item Cn1ncc(O)c(-c2nn(-c3ccc(Cl)cc3)cc2Br)c1=O [Compound 31] with Plant response rating, Crabgrass, Naked of 80 or above?
output: not fulfilled

input: Record CCc1cc(-c2ccc(Cl)cc2)nn1-c1c(OC(=O)C(C)(C)C)cnn(C)c1=O [Compound 40] ; criterion: Plant response rating, Crabgrass, Naked no lower than 80. Met?
output: not fulfilled

input: Is Plant response rating, Crabgrass, Naked for CCc1cc(-c2ccc(C(F)(F)F)cc2)nn1-c1c(OS(C)(=O)=O)cnn(C)c1=O [Compound 19] at or above 80?
output: fulfilled

====

Each record here notes measured Plant response rating, Crabgrass, Large.
Test system: large crabgrass (Digitaria sanguinalis)
method notes: Test A pre-/postemergence plant response
Type: in vivo
condition description: Postemergence, 31 g ai/ha; 0 to 100 scale (0 no effect, 100 complete control)
Hey, just send me the number, nothing else.

input: Which Plant response rating, Crabgrass, Large value is on record for `Cc1cc(-c2ccc(Cl)cc2)nn1-c1c(OS(=O)(=O)c2ccccc2[N+](=O)[O-])cnn(C)c1=O` ?
output: 20

Further cases:
input: Sample `Cc1cc(-c2ccc(Cl)cc2)nn1-c1c(OS(C)(=O)=O)cnn(C)c1=O` — what was its Plant response rating, Crabgrass, Large?
output: 80

input: Name the reported Plant response rating, Crabgrass, Large value associated with the molecule `Cc1c(Br)c(-c2ccc(Br)cc2)nn1-c1c(O)cnn(C)c1=O`
output: 0

input: Given the molecule `Cc1cc(-c2ccc(Cl)cc2)nn1-c1c(OC(=O)c2ccccc2)cnn(C)c1=O` , what is its reported Plant response rating, Crabgrass, Large?
output: 20

input: Given the entry `COCc1cc(-c2ccc(Br)cc2)nn1-c1c(O)cnn(C)c1=O` , report its measured Plant response rating, Crabgrass, Large.
output: 10

input: I am curious: what Plant response rating, Crabgrass, Large value has been reported for `CCc1cc(-c2ccc(Br)cc2)nn1-c1c(O)cnn(C)c1=O` ?
output: 100

====

Test system: goosegrass (Eleusine indica)
method notes: Test E pre-/postemergence plant response
Assay type: in vivo
condition description: Postemergence, 8 g ai/ha, scale 0 to 100
measurement kind: Plant response rating, Goosegrass
Hey, just send me the number, nothing else.

Example cases with answers are listed next.
input: Data request, read-out Plant response rating, Goosegrass, for CCc1cc(-c2ccc(C(F)(F)F)cc2)nn1-c1c(OS(C)(=O)=O)cnn(C)c1=O [Compound 19]
output: 25

input: I have this molecule here, CCc1cc(-c2ccc(C(F)(F)F)cc2)nn1-c1c(O)cnn(C)c1=O [Compound 11] , and I need its recorded Plant response rating, Goosegrass.
output: 35

input: Can you share its Plant response rating, Goosegrass? I mean this molecule: COC(=O)Oc1cnn(C)c(=O)c1-n1nc(-c2ccc(Cl)cc2)cc1C [Compound 33]
output: 35

input: Name the recorded Plant response rating, Goosegrass for CCc1cc(-c2ccc(Cl)cc2)nn1-c1c(OC(=O)C(C)(C)C)cnn(C)c1=O [Compound 40] .
output: 65

input: Query (molecule): Cn1ncc(O)c(-c2nn(-c3ccc(Cl)cc3)cc2Br)c1=O [Compound 31] ; field requested: Plant response rating, Goosegrass
output: 35

Next:
input: Sample Cc1cc(-c2ccc(Cl)cc2)nn1-c1c(OC(=O)C(C)C)cnn(C)c1=O [Compound 34] — what was its Plant response rating, Goosegrass?
output: 0

meta.source: patent US20100267561A1
